Listed below: Enzyme Activity (%) values for each entry.
- Tested on: methionine N^α -acetyltransferase from S. cerevisiae
- Assay type: biochemical, Saccharomyces cerevisiae
- Setup conditions: salt 0.1 mM; 5 min room temperature, 50 mM HEPES pH 7.4, 1 mM DTT; substrate PAI (N=3)
The reply should contain only the number, in %.

Reference set (2 entries):
Compound | Unit spec | Numeric value
[Cl-].[Cl-].[Co+2] [CoCl2] | % | 95
O=S(=O)([O-])[O-].[Cu+2] [CuSO4] | % | 65

Record O=S(=O)([O-])[O-].[Mg+2] [MgSO4] : what is its Enzyme Activity (%) with methionine N^α -acetyltransferase from S. cerevisiae?
102

Moving on to the next compound: O=S(=O)([O-])[O-].[Zn+2] [ZnSO4]
52

Moving on to the next compound: [Cl][Mn][Cl] [MnCl2]
103

Moving on to the next compound: [Cl-].[Cl-].[Mg+2] [MgCl2]
105

Moving on to the next compound: O=S(=O)([O-])[O-].[Fe+2] [FeSO4]
93

Moving on to the next compound: [Cl][Cd][Cl] [CdCl2]
72

---

Listed below: Enzyme Activity (%) values for each entry.
- Test system: methionine N^α -acetyltransferase from S. cerevisiae
- Experimental details: Effect of protein modification reagents on enzyme activity
- Format: biochemical, Saccharomyces cerevisiae
- Setup conditions: reagent 10.0 mM; 30° C. 15 min, then dialyzed; substrate PAI (N=3)
The reply should contain only the number, in %.

Compound | Target or test system | Numeric value
NC(=O)CI [IAM, iodoacetamide] | methionine N^α -acetyltransferase from S. cerevisiae | 86
C[S+](C)Cc1cc([N+](=O)[O-])ccc1O.[Br-] [HNBS(CH3)2 -Br] | methionine N^α -acetyltransferase from S. cerevisiae | 62
OC(CS)C(O)CS (stereo not drawn) [DTT] | methionine N^α -acetyltransferase from S. cerevisiae | 95
O=C(O)c1cc[c]([Hg][Cl])cc1 [pCMB, p-chloromercuribenzoate] | methionine N^α -acetyltransferase from S. cerevisiae | 25
CC(=O)n1ccnc1 [N-acetylimidazole] | methionine N^α -acetyltransferase from S. cerevisiae | 93

For the next question, use this compound.
Enzyme Activity (%) lookup needed for OCCS [2-mercaptoethanol] , thanks.
96

---

- Target or test system: AAA1 N^α -acetyltransferase (N^α -AT) (Saccharomyces cerevisiae, UniProt P07347+P12945)
- Sequence (P12945 2-854 limits assumed): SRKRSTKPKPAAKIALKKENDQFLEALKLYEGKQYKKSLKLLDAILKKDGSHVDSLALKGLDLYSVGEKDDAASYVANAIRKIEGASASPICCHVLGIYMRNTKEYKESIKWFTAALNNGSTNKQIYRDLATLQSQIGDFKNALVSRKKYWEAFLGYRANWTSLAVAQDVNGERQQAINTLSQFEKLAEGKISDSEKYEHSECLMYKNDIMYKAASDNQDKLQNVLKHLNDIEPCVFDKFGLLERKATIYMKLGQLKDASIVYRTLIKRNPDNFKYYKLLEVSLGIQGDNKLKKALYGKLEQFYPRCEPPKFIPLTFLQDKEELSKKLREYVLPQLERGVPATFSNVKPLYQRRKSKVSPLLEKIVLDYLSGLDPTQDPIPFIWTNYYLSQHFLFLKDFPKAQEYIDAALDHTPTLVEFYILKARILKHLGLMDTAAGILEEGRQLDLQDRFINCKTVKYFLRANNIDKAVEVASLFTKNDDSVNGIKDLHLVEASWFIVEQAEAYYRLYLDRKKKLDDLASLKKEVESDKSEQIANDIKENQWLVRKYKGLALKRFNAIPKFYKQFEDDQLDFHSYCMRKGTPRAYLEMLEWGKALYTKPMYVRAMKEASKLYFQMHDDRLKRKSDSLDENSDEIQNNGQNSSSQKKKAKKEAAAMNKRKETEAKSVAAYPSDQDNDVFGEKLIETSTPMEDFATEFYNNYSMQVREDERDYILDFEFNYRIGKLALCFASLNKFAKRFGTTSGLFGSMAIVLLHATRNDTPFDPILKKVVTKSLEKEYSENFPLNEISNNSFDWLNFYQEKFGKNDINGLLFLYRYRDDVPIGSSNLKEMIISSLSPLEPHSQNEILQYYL
- Sequence (P07347 1-238): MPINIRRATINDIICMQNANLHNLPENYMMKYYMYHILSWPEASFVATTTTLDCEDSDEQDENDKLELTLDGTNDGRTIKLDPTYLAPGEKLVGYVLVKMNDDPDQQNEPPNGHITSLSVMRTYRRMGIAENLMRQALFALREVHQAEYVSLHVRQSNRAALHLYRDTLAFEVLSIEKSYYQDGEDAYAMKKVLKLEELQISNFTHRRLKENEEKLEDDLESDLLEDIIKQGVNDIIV
- Experimental details: Relative activity of N^α -AT for N^α -acetylation of synthetic peptides
- Assay type: biochemical
- Setup conditions: Table 7, influence of the penultimate amino terminal residue
Listed below: Activity (%) (mean activity ± S.D.) N^a -AT values for each entry.
The reply should contain only the number, in %.

Reference set (4 entries):
Substance | Unit spec | Numeric value
SHPETQKGVIFYESHGKLEYKDIP (SHPETQKGVIFYESHGKLEYKDIP) | % | 125
SAPETQKGVIFYESHGKLEYKDIP (SAPETQKGVIFYESHGKLEYKDIP) | % | 168
SMPETQKGVIFYESHGKLEYKDIP (SMPETQKGVIFYESHGKLEYKDIP) | % | 140
SIPETQKGVIFYESHGKLEYKDIP (SIPETQKGVIFYESHGKLEYKDIP) [Alcohol dehydrogenase (1-24) (Yeast)] | % | 102

Record SLPETQKGVIFYESHGKLEYKDIP (SLPETQKGVIFYESHGKLEYKDIP) : what is its Activity (%) (mean activity ± S.D.) N^a -AT with AAA1 N^α -acetyltransferase (N^α -AT) (Saccharomyces cerevisiae, UniProt P07347+P12945)?
126

Moving on to the next substance: SSPETQKGVIFYESHGKLEYKDIP (SSPETQKGVIFYESHGKLEYKDIP)
140

Moving on to the next substance: SWPETQKGVIFYESHGKLEYKDIP (SWPETQKGVIFYESHGKLEYKDIP)
91
